Experiment: Fluorescein (CF) leakage from SUVs
Settings: CF-SUVs 0.25 mg/mL in TBS pH 7.2, fluorescence ex 480/em 520 nm; read from Figure 5; read-out: concentration for 50% leakage, PC/Chol. vesicles
Method: Lipid SUVs with single or multiple components were used to model different biomembranes. […] Concentration effects of the binding of amphiphiles to lipid SUVs were examined by means of fluorescein leakage. […] CF-SUVs alone and with added 0.2% Triton-X were measured as positive and negative controls (I+ and I–), respectively. The percentage of leakage L for each sample was calculated using Ln = (In,520 – I+)/(I– – I+) × 100%.
Measured EC50 of individual entries

molecule | EC50 / µM
CCCCCCCCCCCCCC[N+](C)(C)C.[Br-] [C14TAB, tetradecyltrimethylammonium bromide] | 100
CCCCCCCCCCCC[N+](C)(C)C.[Br-] [C12TAB, dodecyltrimethylammonium bromide] | 2000
